- Test system: RXF 393 renal
- PROCEDURE DETAILS: NCI tumour cell line growth inhibition, 48 h
Parameter threshold = 8 µM. Response is yes (1) when TGI meets or exceeds it, else no (0).

// known answers, use as guide
COMPOUND: COc1cc(-c2nn(-c3ccc(NC(=O)c4ccc(Cl)c(Cl)c4)cc3)cc2-c2ccncc2)ccc1Cl
CLASSIFICATION: no (0)
--
COMPOUND: O=C(CNc1nncs1)NO
CLASSIFICATION: yes (1)
--
COMPOUND: O=C(Nc1ccc(N2CCNCC2)cc1)c1[nH]ncc1Nc1ncnc2sc3c(c12)CCC3
CLASSIFICATION: no (0)

I'd appreciate it if you could say whether O=C(Nc1ccccc1F)c1c(O)nc2sccn2c1=O has TGI at least equal to 8 µM.
yes (1)

Please answer likewise for S=C1c2ccccc2NC(=NC2CCCC2)C2CSCN12 (centres undefined)
yes (1)

Please answer likewise for Cn1ccnc1Sc1ccc(/C=N/NC(=O)c2ccccc2O)cc1[N+](=O)[O-]
yes (1)

Please answer likewise for CCc1cccc(C(C)C)c1NC(=O)C(=O)C(Cc1nc2ccccc2[nH]c1=O)C(=O)OC (centres undefined)
yes (1)

Please answer likewise for COc1cc(C2CC(c3ccc(C)cc3)=NN2C=O)ccc1Oc1ccnc2cc(Cl)ccc12 (centres undefined)
yes (1)
